System: BT-549
Assay: NCI tumour cell line growth inhibition, 48 h
Activity calls are given as the source filed them. Cut-off read from the data, not from the text of the source: active = GI50 up to about 1.1 µM and inactive = higher.
GI50 overview

Reference set, count: 7
Cc1ccc2c(c1)C(=O)c1nc(C)ccc1C2=O :: 53.7 µM (inactive)
O=C(/C=C/c1ccccc1)c1cc(C(=O)/C=C/c2ccccc2)c(O)cc1O :: > 100 µM (inactive)
CCOC(=O)NC(=S)NC(C)c1ccccc1 (stereo not drawn) :: > 100 µM (inactive)
N/C(CSCCSC/C(N)=N/O)=N\O :: > 100 µM (inactive)
Cc1ccc2nc(CN3CCCC(O)C3)cc(=O)n2c1 (stereo not drawn) :: > 100 µM (inactive)
CC(=O)O[C@H]1CCC2[C@@H]3CCC4NC(=O)C(C#N)C[C@]4(C)C3CC[C@@]21C (stereo partly drawn) :: > 10 µM (inactive)
CC(Oc1ccccc1Cl)C(=O)NN1C(=O)CSC1c1ccc(Cl)cc1 (stereo not drawn) :: 21.3 µM (inactive)

Asked: // query GI50 value for entry "Cc1cc(S(=O)(=O)Nc2n[nH]c(-c3ccc(Cl)cn3)n2)c(S)cc1Cl"
Given back: 32.2 µM (inactive)
